assay: Human HepG2 cell viability assay in 384 well format; type: toxicity, cell-based; design: dose 125 nL, time 70.5 hour; concentration not given beside the values; conditions: HepG2 cells, read-out: Inhibition
property_name: cytotoxicity at 70.5 h (%)
Quick reminder: number only, in %, skip the unit.

Record excerpt, results attached:
compound | unit_name | cytotoxicity at 70.5 h
O=C(Cc1noc(C(=O)NCC2CC2)n1)Nc1cccc(C(F)(F)F)c1 | % | -7.55
COc1ncccc1CN1CCC2(CC1)CC(OCC1CC1)CO2 (stereo unspecified) | % | -4.27
Cc1cc(C)c(OCC(=O)NS(=O)(=O)c2cccnc2)c(C)c1 | % | -3.3

So what does the record say about cytotoxicity at 70.5 h for Cc1cnn(CC2CCCN2C(=O)CCCc2nc(C)no2)c1 (stereo unspecified) ? 32.9

So what does the record say about cytotoxicity at 70.5 h for Cc1ccccc1OCC(O)CN1CCC(Cn2cccn2)CC1 (stereo unspecified) ? 2.37

So what does the record say about cytotoxicity at 70.5 h for CS(=O)(=O)N1CCCC12CCCN(S(=O)(=O)c1ccc(F)c(F)c1)C2 (stereo unspecified) ? 2.95

###

assay: Human HepG2 cell viability assay in 384 well format; type: toxicity, cell-based; design: dose 125 nL, time 70.5 hour; concentration not given beside the values; settings: HepG2 cells, read-out: Inhibition
cytotoxicity at 70.5 h: recorded values
Quick reminder: number only, in %, skip the unit.

Record excerpt, results attached:
molecule | cytotoxicity at 70.5 h / %
CC(=O)N1CCN(C(=O)NCc2ccc(Cl)s2)CC1 | 20.2
CN(CCCC1CCCC1)C(=O)c1cc(CN2CCC(O)CC2)on1 | 10.4
O=C1CC[C@@H]2[C@@H](CCN2Cc2ccccn2)N1CC1CC1 | -3.44
COc1ccc(CN2C[C@@H]3OCC(=O)N(CC(N)=O)[C@@H]3C2)cc1 | 2.86

So what does the record say about cytotoxicity at 70.5 h for Cc1cccc(CN2C[C@@H]3CN(C(=O)c4ccsc4)C[C@@H]3C2=O)n1 ? -2.24

So what does the record say about cytotoxicity at 70.5 h for Cc1cc(C)n(CC2CCCN2C(=O)c2ccc3c(c2)OCO3)n1 (configuration not stated) ? 6.92

So what does the record say about cytotoxicity at 70.5 h for Cn1cc(C2COC3(CCN(C(=O)Cc4ccccc4)CC3)C2)cn1 (configuration not stated) ? -8.09

So what does the record say about cytotoxicity at 70.5 h for O=C(NCCN1CCOCC1)c1cnc(Cc2ccc(F)cc2)s1 ? -8.24

So what does the record say about cytotoxicity at 70.5 h for c1csc(CCNC2CCc3ncnn3C2)c1 (configuration not stated) ? 0.839

So what does the record say about cytotoxicity at 70.5 h for CS(=O)(=O)N1CCO[C@@H]2CN(C(=O)C3CC(F)(F)C3)C[C@@H]2C1 ? -3.63

So what does the record say about cytotoxicity at 70.5 h for CN1CCN(Cc2ccccc2CNC(=O)c2ccc(Cl)cc2F)CC1 ? 3.69

So what does the record say about cytotoxicity at 70.5 h for Cc1ncccc1C(=O)NC1(c2cccc(F)c2)CCOCC1 ? -3.77

###

test: Human HepG2 cell viability assay in 384 well format; format: toxicity, cell-based; parameters: dose 125 nL, time 70.5 hour; concentration not given beside the values; conditions: HepG2 cells, read-out: Inhibition
cytotoxicity at 70.5 h: recorded values
Quick reminder: number only, in %, skip the unit.

Record excerpt, results attached:
compound | unit_name | reported_result
COCC(=O)N1CCN(C)CC(Cc2cc(N(C)C)ncn2)C1 (configuration not stated) | % | -3.09
O=C(c1cc(-c2cccnc2)[nH]n1)N1CCCC(c2cnccn2)C1 (configuration not stated) | % | 12

So what does the record say about cytotoxicity at 70.5 h for O=C1OCCN1Cc1ncnn1Cc1c(F)cccc1Cl ? 11.9

So what does the record say about cytotoxicity at 70.5 h for COCC(=O)N1CCN(c2cc(-n3cccc3)nc(C)n2)CC1 ? 5.98

So what does the record say about cytotoxicity at 70.5 h for O=C1CC2(CCN(C(=O)C3CCCCC3)C2)Nc2ccccc2N1 (configuration not stated) ? -9.46
